# method notes: Metabolic stability in rat liver microsomes assessed as compound remaining at 1 uM after 60 mins by LC-ESI/MS/MS analysis in absence of UDPGA
# Assay type: ADME
# details: read-out: Stability
property: remaining at 1 h, 1 µM (%)

>>> print(df.to_string())
                                  compound  value_measured
0  COc1cccc(CCCn2cccc(/C=C/C(=O)NO)c2=O)c1            81.3
1  O=C(/C=C/c1cccn(Cc2ccc3ccccc3n2)c1=O)NO            88.9

----------
Reported Activity values are given for each entry in this list.
# Test system: C2C12
# method notes: Induction of RUNX transcriptional activation in mouse C2C12-6xOSE2 cells at 1 uM after 24 hrs by luciferase reporter assay relative to FGF-2
# Assay type: functional
Field: numeric (%). Do not append units.

Worked examples follow.
>>> print(df.to_string())
                                   compound  unit_symbol  value_measured
0    O=C(/C=C/c1cccn(CCc2ccc(Br)cc2)c1=O)NO            %            53.5
1   CCOc1ccc(CCn2cccc(/C=C/C(=O)NO)c2=O)cc1            %           119.5
2  CC(C)(C)c1ccc(CCCn2cccc(/C=C/C(=O)NO)c2=O)cc1            %            34.4

Q: Please give the measured Activity for this compound: CC(C)(C)c1ccc(CCn2cccc(/C=C/C(=O)NO)c2=O)cc1
Result: 104.7

Q: Please give the measured Activity for this compound: O=C(/C=C/c1cccn(Cc2ccc(Br)cc2)c1=O)NO
Result: 99.2

Q: Please give the measured Activity for this compound: O=C(/C=C/c1cccn(CCCc2ccccc2Br)c1=O)NO
Result: 162.8

Q: Please give the measured Activity for this compound: COc1cccc(CCn2cccc(/C=C/C(=O)NO)c2=O)c1
Result: 53.8

Q: Please give the measured Activity for this compound: COc1ccc(Cn2cccc(/C=C/C(=O)NO)c2=O)cc1
Result: 84.6

----------
# method notes: AUC(0 to infinity) in Sprague-Dawley rat at 2 mg/kg, iv by LC-MS/MS analysis
# Format: ADME, organism-based
# Set-up: time infinity, dose 2 mg/kg, route intravenous
# details: plasma
property: AUC(0-inf) (ng·h/mL)
Field: numeric (ng·h/mL). Do not append units.

Q: Please give the measured AUC(0-inf) for this compound: O=C(/C=C/c1cccn(Cc2ccc3ccccc3n2)c1=O)NO
Result: 354

----------
# method notes: Metabolic stability in human liver microsomes assessed as compound remaining at 1 uM after 60 mins byLC-ESI/MS/MS analysis in presence of NADPH
# Type: ADME
# details: read-out: Stability
property: remaining at 1 h, 1 µM (%)
Field: numeric (%). Do not append units.

Q: Please give the measured remaining at 1 h, 1 µM for this compound: O=C(/C=C/c1cccn(Cc2ccc3ccccc3n2)c1=O)NO
Result: 75.5

----------
# method notes: Metabolic stability in rat liver microsomes assessed as compound remaining at 1 uM after 60 mins by LC-ESI/MS/MS analysis in absence of NADPH
# Type: ADME
# details: read-out: Stability
property: remaining at 1 h, 1 µM (%)

>>> df
                                  compound  unit_symbol  value_measured
0  COc1cccc(CCCn2cccc(/C=C/C(=O)NO)c2=O)c1            %             116
1  O=C(/C=C/c1cccn(Cc2ccc3ccccc3n2)c1=O)NO            %              92

Source listed as ChEMBL document CHEMBL3425447.
